target-or-system: UniProt:P43220
Sequence (P43220 24-463): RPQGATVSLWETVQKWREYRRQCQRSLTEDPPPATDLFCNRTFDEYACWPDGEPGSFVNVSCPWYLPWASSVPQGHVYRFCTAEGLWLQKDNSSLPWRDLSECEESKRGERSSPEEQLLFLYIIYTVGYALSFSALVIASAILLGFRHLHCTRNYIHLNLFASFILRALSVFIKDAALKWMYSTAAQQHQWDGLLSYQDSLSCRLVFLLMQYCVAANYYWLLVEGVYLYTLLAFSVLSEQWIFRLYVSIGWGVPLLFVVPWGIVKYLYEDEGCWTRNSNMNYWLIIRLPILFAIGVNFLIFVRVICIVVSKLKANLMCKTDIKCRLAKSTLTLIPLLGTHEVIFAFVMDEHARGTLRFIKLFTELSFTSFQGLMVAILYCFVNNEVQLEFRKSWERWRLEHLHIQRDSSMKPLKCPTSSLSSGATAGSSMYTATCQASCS
Sequence (P01275 100-127 partner limits assumed): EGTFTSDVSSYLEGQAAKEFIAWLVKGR
experimental-details: EC20 GLP-1(9-36) PAM cAMP assay: dose response of compound in the presence of fixed concentration of GLP-1(9-36)
applied-conditions: GLP-1R CRE-bla CHO-K1 cells, compound dose response in presence of fixed concentration of GLP-1(9-36)
# EC50 listing for each entry below

Known EC50 results, listed for orientation:
| smiles-entry | target-or-system | result |
| --- | --- | --- |
| CCCCCCOc1ccc(-c2cnc(-c3ccc(C[C@H](NC(=O)c4ccc(C(C)(C)C)s4)C(=O)NCC4(C(=O)O)CCC4)cc3)nc2)cc1 | UniProt:P43220 | 800 to 2500 nM |
| CC(C)(C)c1ccc(C(=O)N[C@@H](Cc2ccc(-c3noc(-c4ccc(-c5ccc(F)c(F)c5)cc4)n3)cc2)C(=O)O)cc1 | UniProt:P43220 | 2500 to 5000 nM |
| CCCCCCCOc1ccc(-c2nc(-c3ccc(C[C@H](NC(=O)c4ccc(C(C)(C)C)cc4)C(=O)NS(C)(=O)=O)cc3)no2)cc1 | UniProt:P43220 | 5000 to 10000 nM |

Tell us which EC50 value is on record for "CC(C)(C)c1ccc(C(=O)N[C@@H](Cc2ccc(-c3ncc(-c4cccc(N5CCCCC5)c4)cn3)cc2)C(=O)O)cc1"
2500 to 5000 nM

Give EC50 for the following molecule: "CC(C)c1ccc(C(=O)N[C@@H](Cc2ccc(-c3ncc(-c4ccc(C(C)(C)C)cc4)cn3)cc2)C(=O)O)cc1"
800 to 2500 nM

Supply EC50 value. Item: "CCCCCCCOc1ccc(-c2cnc(-c3ccc(C[C@H](NC(=O)c4ccc(C(C)(C)C)cc4)C(=O)O)cc3)nc2OC)cc1"
800 to 2500 nM

###

target-or-system: UniProt P43220
experimental-details: EC20 GLP-1(9-36) PAM cAMP assay: dose response of compound in the presence of fixed concentration of GLP-1(9-36)
applied-conditions: GLP-1R CRE-bla CHO-K1 cells, compound dose response in presence of fixed concentration of GLP-1(9-36)
assay-metric: EC50

Solved entries (count: 5):
| compound | result |
| --- | --- |
| CCCCCCCOc1ccc(-c2cnc(-c3ccc(C[C@H](NC(=O)c4ccc(CC)s4)C(=O)O)cc3)nc2)cc1 | 800 to 2500 nM |
| CCCCCCCOc1ccc(-c2cnc(-c3ccc(C[C@H](NS(=O)(=O)c4ccc(C(F)(F)F)cc4)C(=O)O)cc3)nc2)cc1 | 2500 to 5000 nM |
| CCCCCCCCCOc1ccc(-c2cnc(-c3ccc(C[C@H](NC(=O)c4ccc(C(C)(C)C)s4)C(=O)O)cc3)nc2)cc1 | < 800 nM |
| CC(C)(C)c1ccc(-c2cnc(-c3ccc(C[C@H](NC(=O)c4ccc(C(C)(C)C)s4)C(=O)NC(CN4CCCC4)C(=O)O)cc3)nc2)cc1 (stereo partly shown) | 2500 to 5000 nM |
| CC(C)(C)c1ccc(-c2cnc(-c3ccc(C[C@H](NC(=O)c4ccc(C(C)(C)C)s4)C(=O)N[C@H](Cc4cnc[nH]4)C(=O)O)cc3)nc2)cc1 | 800 to 2500 nM |

Moving on to the next compound.
Identify measured EC50 corresponding to "CCCCCCCOc1ccc(-c2cnc(-c3ccc(C[C@H](NC(=O)c4ccc(C(C)(C)C)s4)C(=O)N[C@@H](CO)C(=O)O)cc3)nc2)cc1"
< 800 nM

Cited source for all entries: patent US8778923B2
